Test: Peptide content (assay) of lyophilized drug product by UPLC-UV at 220 nm, method according to the invention (USP reserpine reference standard, RRF)
Type: physicochemical
Conditions: DP-7P batch, T54M, method according to the invention (USP RS)
Listing of entries alongside the reported Assay (mg/vial).
Report as a plain number; the unit mg/vial is understood.

{"columns": ["query.sequence", "Assay (mg/vial)"],
 "data": [
  ["MHQKRTAMFQ QERPRKLPQLCTELQTTIHD (MHQKRTAMFQQERPRKLPQLCTELQTTIHD; Peptide 10)", 0.3966],
  ["LPQLCTELQTTIHDIILECVYCKQQLLRREVY (Peptide 9)", 0.3718]
]}

In: In one line, give reported Assay (mg/vial) of the entry RDLCIVYRDGNPYAVCDKCLKFYSKI (Peptide 11) .
Out: 0.3815

In: For the sequence YGTTLEQQYNKPLCDLLIRCINCQKPLCPEEK (Peptide 12) , give its reported Assay (mg/vial).
Out: 0.4034

* * *

Assay: Peptide content (assay) of lyophilized drug product by UPLC-UV at 220 nm, method according to the invention (USP reserpine reference standard, RRF)
Assay type: physicochemical
Conditions: DP-5P batch, T60M, method according to the invention (USP RS)
Procedure: The UPLC method similar to Example 1 was used for the quantification of analytes (i.e. the individual peptides) in mixtures DP-5P (SEQ ID NO: 1-5) and DP-7P (SEQ ID NO: 6-12) and for the determination of content uniformity of mixtures DP-5P and DP-7P (lyophilized product). […] The purity, individual related substances, and the assay of DP-5P and DP-7P were determined by reversed phase rapid HPLC (UPLC) using a mobile phase gradient of ACN/IPA and water and UV detection at λ220 nm. […]
metric.name: Label claim (% target 0.40 mg/vial)
Form entry: enter the amount, then its unit.

{"columns": ["query.sequence", "Label claim (% target 0.40 mg/vial)"],
 "data": [
  ["MHGDTPTLHEYMLDLQPETTDLYCYEQLNDSSEEE [Peptide 3]", "97%"],
  ["TLRLCVQSTHVDIRTLEDLLMGTLGIVCPICSQKP (Peptide 5)", "99%"],
  ["LYCYEQLNDSSEEEDEIDGPAGQAEPDRAHYNIVT (Peptide 2)", "97%"],
  ["DKCLKFYSKISEYRHYCYSLYGTTL (Peptide 1)", "93%"]
]}

In: Report Label claim (% target 0.40 mg/vial), nothing else, for this sequence: RCINCQKPLCPEEKQRHLDKKQRFHNIRGRWT (Peptide 4)
Out: 96%

* * *

Listed here: items and their measured Assay (mg/vial).
Experiment: Peptide content (assay) of lyophilized drug product by UPLC-UV at 220 nm, conventional method (peptide as reference standard)
Type: physicochemical
Settings: DP-5P batch, T54M, conventional method (peptide as RS)
Numbers only here, please. The scale is mg/vial.

Example entries begin here.
{"columns": ["query.sequence", "recorded.result"],
 "data": [
  ["DKCLKFYSKISEYRHYCYSLYGTTL (Peptide 1)", 0.4088],
  ["MHGDTPTLHEYMLDLQPETTDLYCYEQLNDSSEEE [Peptide 3]", 0.4194],
  ["RCINCQKPLCPEEKQRHLDKKQRFHNIRGRWT (Peptide 4)", 0.3911],
  ["LYCYEQLNDSSEEEDEIDGPAGQAEPDRAHYNIVT (Peptide 2)", 0.4149]
]}

Attention now turns to another entry.
In: Give the value of Assay (mg/vial) reported for the following: TLRLCVQSTHVDIRTLEDLLMGTLGIVCPICSQKP (Peptide 5)
Out: 0.3948

The measured values listed here are drawn from patent US20230296569A1.
